- procedure text: Intramuscular pharmacokinetic study of chiral isomers 1 and 2
- Format: in vivo, male Sprague Dawley (SD) rats
- details: male, Sprague-Dawley, rat, plasma, intramuscular; IM 20 mg/kg, 72 h
measured parameter: concentration at 72 h
The answer should read as a number with its unit following.

Query: Look up and report measured concentration at 72 h for this entry: CCOC(=O)[C@H]1N=C1CCc1ccc(OC)cc1 [Chiral isomer (1-1)]
Reply: 110 ng/mL

###

- procedure text: Intramuscular pharmacokinetic study of bulk compound 1 and chiral isomers
- Format: in vivo, male Sprague Dawley (SD) rats
- details: male, Sprague-Dawley, rat, plasma, intramuscular; IM 20 mg/kg, 24 h
Reported concentration at 24 h values for the following molecules.
Please answer using the number first and the unit second.

# molecule, concentration at 24 h
data = [
    ("CCOC(=O)[C@H]1N=C1CCc1ccc(OC)cc1 (single isomer, unassigned) [Chiral isomer (1-1)]", "2470 ng/mL"),
]

Now look at this entry.
Query: Find the measured concentration at 24 h of CCOC(=O)C1N=C1CCc1ccc(OC)cc1 (racemic) and report it.
Reply: 1740 ng/mL
